Values from the METLIN SMRT retention time set (Domingo-Almenara et al. 2019)

assay_comment: gradient 5% acetonitrile 3 min, to 50% in 2 min, to 85% in 15 min, held 3 min, 100 µL/min
condition: column: Zorbax Extend-C18 2.1 x 50 mm; eluents: water / acetonitrile, 0.1% formic acid
Checkbox rule: RP-LC retention time lower than 800 s = fulfilled; RP-LC retention time not lower than 800 s = not fulfilled.

Inquiry: Is RP-LC retention time strictly under 800 s for the entry COc1ccc(S(=O)(=O)N2CCN(c3cc(C)nc(N4CCCCC4)n3)CC2)cc1Cl ?
Reply text: fulfilled

Inquiry: Try the molecule CC(C)c1nnc(NC(=O)c2cc(Cl)ccc2Cl)s1
Reply text: not fulfilled

Inquiry: Try the molecule Cc1ccc2c(c1)OCC(=O)N2Cc1nc(-c2ccc(C)c(C)c2)no1
Reply text: not fulfilled

Inquiry: Try the molecule CN(C)c1cc(N2CCCC(NC(=O)c3cccnc3)C2)ncn1 (centres undefined)
Reply text: fulfilled

Inquiry: Try the molecule O=C(Cc1csc(-c2ccccc2)n1)Nc1nc(-c2ccc3c(c2)CCCC3)cs1
Reply text: fulfilled

Inquiry: Try the molecule Cc1ccc(N2CCC(NC(=O)c3cc(F)cc(F)c3)C2=O)cc1 (centres undefined)
Reply text: not fulfilled

Inquiry: Try the molecule COC(=O)CNC(=O)N1CCCCC1c1nc(CCOCC2CC2)no1 (centres undefined)
Reply text: fulfilled

---

assay_comment: gradient 5% acetonitrile 3 min, to 50% in 2 min, to 85% in 15 min, held 3 min, 100 µL/min
condition: column: Zorbax Extend-C18 2.1 x 50 mm; eluents: water / acetonitrile, 0.1% formic acid
Would you mind telling me the reported RP-LC retention time of each entry?
Write down the numeric answer in s and omit the unit.

Inquiry: What value of RP-LC retention time has been recorded for this entry: COc1ccc(CNC(=O)COc2ccc(NC(=O)C3CC3)cn2)cc1OC
Reply text: 666

Inquiry: Try the molecule O=C(Nc1ccc(F)cc1)N1C[C@H]2C[C@H](C1)[C@H]1CCCC(=O)N1C2
Reply text: 640

Inquiry: Try the molecule COc1ccc2c(c1)C1(CCN(S(=O)(=O)c3ccc(C#N)cc3)C1)C(=O)N2 (centres undefined)
Reply text: 797

Inquiry: Try the molecule O=C(c1ccc(F)c(Cl)c1)N1CCN(C(=O)c2nnn3c2COC(c2ccccc2)C3)CC1 (centres undefined)
Reply text: 913

Inquiry: Try the molecule O=C(Nc1cc(-c2cccnc2)no1)c1ccc(F)cc1
Reply text: 729

Inquiry: Try the molecule Cn1cc(S(=O)(=O)N2CCOCC2)cc1C(=O)N1CCN(c2ccccn2)CC1
Reply text: 574

Inquiry: Try the molecule Cc1cccc(C(=O)Nc2c(-c3ccccc3)nc3cc(C)ccn23)c1
Reply text: 674

Inquiry: Try the molecule Cc1ccccc1NC(=O)N1c2ccccc2NC2=C(C(=O)CCC2)C1c1ccco1 (centres undefined)
Reply text: 817

Inquiry: Try the molecule Cc1oc(C2CCN(S(=O)(=O)c3ccc(C#N)cc3)CC2)nc1C(=O)N1CCOCC1
Reply text: 760

---

assay_comment: gradient 5% acetonitrile 3 min, to 50% in 2 min, to 85% in 15 min, held 3 min, 100 µL/min
condition: column: Zorbax Extend-C18 2.1 x 50 mm; eluents: water / acetonitrile, 0.1% formic acid
quantity_measured: RP-LC retention time (s)
Write down the numeric answer in s and omit the unit.

Inquiry: What value of RP-LC retention time has been recorded for this entry: COc1c(C(=O)NCc2ccccc2C)sc2cccc(F)c12
Reply text: 1130

Inquiry: Try the compound COc1ccc(NC(=O)N2CCC(CC(=O)N3CCCCC3)CC2)cc1Cl
Reply text: 774

Inquiry: Try the compound O=C(c1ccc(Br)cc1)N1CCN=C1N1CCN(c2ccccc2F)CC1
Reply text: 632

Inquiry: Try the compound CCS(=O)(=O)N1CCC(F)(c2nc(-c3ccccc3)no2)CC1
Reply text: 952

Inquiry: Try the compound CCc1nc(-c2csc(S(=O)(=O)N3CCC(C(=O)NC4CCCCCC4)CC3)c2)no1
Reply text: 997

Inquiry: Try the compound Cc1ccc(C(=O)CSc2ccc(NC(=O)C(C)C)nn2)c(C)c1
Reply text: 890

Inquiry: Try the compound CCOC(=O)C1CCCN(c2ccc3nnc(CCc4nc(-c5ccccc5C)no4)n3n2)C1 (centres undefined)
Reply text: 1030

Inquiry: Try the compound CCc1nnc2cc(N3CCN(C(=O)Nc4cccc(F)c4)CC3)cnn12
Reply text: 655

Inquiry: Try the compound Cn1cc(-c2ccc(F)cc2)cc1C(=O)NCCN1CCCCC1
Reply text: 672

Inquiry: Try the compound CC1=C(c2ccc(C)c(C)c2)S(=O)(=O)N=C1N1CCCN(C(=O)c2ccco2)CC1
Reply text: 836

Inquiry: Try the compound Cc1ccc(-c2cn3ccccc3n2)cc1NS(=O)(=O)c1ccccc1
Reply text: 630

Inquiry: Try the compound Cc1ccc(-c2cc3n(n2)CCCN(C(=O)c2ccccn2)C3)cc1
Reply text: 766

Inquiry: Try the compound Cc1c(CCC(=O)O)c(C)n2c(nc3ccccc32)c1C#N
Reply text: 593

Inquiry: Try the compound CN(C)CCCNC(=O)C(=O)c1c(-c2ccccc2)cc2ccccn12
Reply text: 620

Inquiry: Try the compound CC1=C(c2ccccc2)S(=O)(=O)N=C1N1CCCN(C(=O)CC2CCCC2)CC1
Reply text: 861

Inquiry: Try the compound Cc1c(Cl)ccc2c(=O)c3c([nH]c12)CCN(CC(=O)Nc1cc(F)cc(F)c1)C3
Reply text: 664

Inquiry: Try the compound COC(=O)c1ccc(NC(=O)CSc2cc(N3CCN(c4ccc(OC)cc4)CC3)ncn2)cc1
Reply text: 926

Inquiry: Try the compound CC(=O)Nc1ccc(OCCOc2ccc([N+](=O)[O-])cc2)cc1
Reply text: 862

Inquiry: Try the compound COCCNC(=O)c1csc(N2CCN(c3ccccc3)CC2)n1
Reply text: 863

Inquiry: Try the compound CCCC(C)C(=O)N1CC2CN(S(=O)(=O)c3ccccc3)CC(C1)O2 (centres undefined)
Reply text: 807

Inquiry: Try the compound CC(C)n1cc(S(=O)(=O)Nc2ccc(Cl)cc2)c2cccnc21
Reply text: 862

Inquiry: Try the compound CCOC(=O)C1=C(C)NC(C)=C(C(=O)OCC)C1c1ccncc1
Reply text: 564

Inquiry: Try the compound CC(C)N1CCC2(CC1)N=C(c1ccc3c(c1)OCO3)CC(c1ccccc1O)N2 (centres undefined)
Reply text: 593

Inquiry: Try the compound Fc1ccc(-c2noc(Cc3nc(-c4cccc(Cl)c4)cs3)n2)cc1
Reply text: 1350

Inquiry: Try the compound O=C(O)[C@@H]1OCC(=O)N(C2CC2)[C@H]1c1ccccc1
Reply text: 648

Inquiry: Try the compound O=C(NC1CC1)C1(F)CCN(S(=O)(=O)c2ccccc2)CC1
Reply text: 673

Inquiry: Try the compound COc1cc2ncnc(Nc3ccc(NC(=O)c4ccccc4)cc3)c2cc1OC
Reply text: 687

Inquiry: Try the compound Cc1cc(-c2nnc3sc(COc4ccc(Br)cc4)nn23)n[nH]1
Reply text: 786

Inquiry: Try the compound Cc1nn(CC(=O)NCCN(C)C)c(=O)c2nc(-c3ccccc3)sc12
Reply text: 601

Inquiry: Try the compound CCSc1nc2ccc(NS(=O)(=O)c3ccc4c(c3)CCC4)cc2s1
Reply text: 1110

Inquiry: Try the compound CCc1nc(-c2nnn(-c3ccccc3)c2C)no1
Reply text: 863

Inquiry: Try the compound O=C(NC1CC1)c1cc2cc(Br)ccc2[nH]1
Reply text: 817

Inquiry: Try the compound CCOC(=O)C1CCN(C(=O)Cn2nc3cc(-c4ccccc4)nc(C)n3c2=O)CC1
Reply text: 858

Inquiry: Try the compound Cc1[nH]c2ccccc2c1C(=O)CSc1nnc2sc3ccccc3n12
Reply text: 829

Inquiry: Try the compound O=C(NCc1csc(C2CCN(C(=O)Cc3ccc(Cl)cc3)CC2)n1)C1CC1
Reply text: 747

Inquiry: Try the compound O=C(NC1CCN(Cc2ccccc2)CC1)c1cc2n(n1)CCCN(Cc1ccc(F)cc1)C2=O
Reply text: 658

Inquiry: Try the compound O=C(Nc1ccc(OCc2nnc(-c3ccccc3)o2)cc1)c1cncc(Br)c1
Reply text: 883

Inquiry: Try the compound CCC(=O)CCCCC[C@@H]1NC(=O)[C@H]2CCCCN2C(=O)[C@H]([C@H](C)CC)NC(=O)[C@H](Cc2cn(OC)c3ccccc23)NC1=O
Reply text: 965

Inquiry: Try the compound COC[C@@H]1CN(S(=O)(=O)c2cccc(F)c2)C[C@H]1c1ccccn1
Reply text: 639
